- Test system: HEK293 cells
- TEST PROTOCOL: Preliminary screening as DNA vectors, GFP transfection of HEK293 cells
- Assay type: cell-based
- MEASUREMENT PARAMETERS: HEK293 cells; lipid/DOPE liposome with 75 ng plasmid DNA (psin-EGFP-IRES-Puro); number of cells expressing GFP divided by total number of nuclei (Hoechst)
A collection of compounds and their measured Absolute DNA transfection efficiency in HEK293 cells
Field: numeric (%). Do not append units.

# example entries with known answers
Data request: Annotate the compound CCCCCCCCCCCNc1nc(NCCCCCCCC)nc(NCCCN2CCOCC2)n1 with its measured Absolute DNA transfection efficiency in HEK293 cells.
Data returned: 0.0

Data request: Annotate the compound CCCCCCCCCCCSc1nc(NCCN2CCCC2)nc(SCCCCCCCCCCC)n1 with its measured Absolute DNA transfection efficiency in HEK293 cells.
Data returned: 6.5

Data request: Annotate the compound CCCCCCCCCCCCCCCCCCSc1nc(NCCN2CCCCC2)nc(SCCCCCCCCCC)n1 with its measured Absolute DNA transfection efficiency in HEK293 cells.
Data returned: 6.7

Data request: Annotate the compound CCCCCCCCCCCNc1nc(NCCCCCCCCCCC)nc(NCCN2CCOCC2)n1 with its measured Absolute DNA transfection efficiency in HEK293 cells.
Data returned: 0.0

Data request: Annotate the compound CCCCCCCCCCCCCCCCNc1nc(NCCCCCCCCCCCCC)nc(NCCN2CCCC2)n1 with its measured Absolute DNA transfection efficiency in HEK293 cells.
Data returned: 0.4

Data request: Annotate the compound CCCCCCCCCCCCCCCCSc1nc(NCCN2CCOCC2)nc(SCCCCCCCCCC)n1 with its measured Absolute DNA transfection efficiency in HEK293 cells.
Data returned: 0.1

Data request: Annotate the compound CCCCCCCCCNc1nc(NCCCCCCC)nc(NCCCN2CCOCC2)n1 with its measured Absolute DNA transfection efficiency in HEK293 cells.
Data returned: 0.0

Data request: Annotate the compound CCCCCCCCCCCCCCCCNc1nc(NCCCCCCCC)nc(NCCN2CCOCC2)n1 with its measured Absolute DNA transfection efficiency in HEK293 cells.
Data returned: 0.8

Data request: Annotate the compound CCCCCCCCCCCCCNc1nc(NCCCCCCCCCCCCC)nc(NCCN2CCN(C)CC2)n1 with its measured Absolute DNA transfection efficiency in HEK293 cells.
Data returned: 0.9

Data request: Annotate the compound CCCCCCCCCCCCNc1nc(NCCCCCCCCCCCC)nc(NCCN2CCCC2)n1 with its measured Absolute DNA transfection efficiency in HEK293 cells.
Data returned: 1.9

Continuing:
Data request: Annotate the compound CCCCCCCCCCCCCCCCCCNc1nc(NCCCCCCCCCCCC)nc(NCCN2CCN(C)CC2)n1 with its measured Absolute DNA transfection efficiency in HEK293 cells.
Data returned: 0.0

Data request: Annotate the compound CCCCCCCCCCCCCNc1nc(NCCCCCCC)nc(NCCN(CC)CC)n1 with its measured Absolute DNA transfection efficiency in HEK293 cells.
Data returned: 0.1

Data request: Annotate the compound CCCCCCCCCCCCCCCCNc1nc(NCCCCCCCCCCCC)nc(NCC2CCN(C)CC2)n1 with its measured Absolute DNA transfection efficiency in HEK293 cells.
Data returned: 0.0

Data request: Annotate the compound CCCCCCCCCCCCCCCSc1nc(NCCN(CC)CC)nc(SCCCCCCCCCCC)n1 with its measured Absolute DNA transfection efficiency in HEK293 cells.
Data returned: 5.3

Data request: Annotate the compound CCCCCCCCCCCCCCCCCCNc1nc(NCCCCCCCC)nc(NCCCN2CCN(C)CC2)n1 with its measured Absolute DNA transfection efficiency in HEK293 cells.
Data returned: 1.2

Data request: Annotate the compound CCCCCCCCCCCCSc1nc(NCC2CCN(C)CC2)nc(SCCCCCCCCCCCC)n1 with its measured Absolute DNA transfection efficiency in HEK293 cells.
Data returned: 2.7

These data points were gathered from patent US20230123334A1.
